System: HCT-15
Assay: Growth inhibition of human HCT15 cells at 20 ug/ml relative to control
Assay type: functional
Conditions: read-out: GI
Quantity name: inhibition of growth at 20 µg/mL (%)

INSERT INTO measurements (structure_smiles, assay_value) VALUES
  ('COc1cc(/C=C2\C(=O)N3CCC[C@H]3C(=O)N2OC2CCCCC2)cc(OC)c1OC', 67.9),
  ('CON1C(=O)[C@@H]2CCCN2C(=O)/C1=C\c1ccccc1', 88.8),
  ('COc1cc(/C=C2\C(=O)N3CCC[C@H]3C(=O)N2OCc2ccccc2)cc(OC)c1OC', 74.2),
  ('O=C1[C@@H]2CCCN2C(=O)/C(=C\c2ccccc2)N1OC1CCCCC1', 72.3),
  ('CCCCON1C(=O)[C@@H]2CCCN2C(=O)/C1=C\c1ccccc1', 90.6),
  ('CCCCON1C(=O)[C@@H]2CCCN2C(=O)/C1=C\c1cc(OC)c(OC)c(OC)c1', 61.6),
  ('O=C1[C@@H]2CCCN2C(=O)/C(=C\c2cccnc2)N1OC1CCCCC1', 62.1),
  ('O=C1[C@@H]2CCCN2C(=O)/C(=C\c2ccccc2)N1OCc1ccccc1', 69.7);

###

Experiment: Cytotoxicity against human K562-1 cells at 10 uM after 24 hrs by sulforhodamine B assay relative to control
Type: functional
List of Activity values.
Quantity name: Activity

INSERT INTO results (structure_smiles, assay_value) VALUES
  ('CON1C(=O)[C@@H]2CCCN2C(=O)/C1=C\c1ccccc1', '36.2%'),
  ('COc1cc(/C=C2\C(=O)N3CCC[C@H]3C(=O)N2OC2CCCCC2)cc(OC)c1OC', '50.7%'),
  ('COc1cc(/C=C2\C(=O)N3CCC[C@H]3C(=O)N2OCc2ccc(Cl)cc2)cc(OC)c1OC', '58.1%'),
  ('CCCCON1C(=O)[C@@H]2CCCN2C(=O)/C1=C\c1ccccc1', '39.2%');

###

Test system: HCT-15
Experiment: Cytotoxicity against human HCT15 cells at 50 uM after 24 hrs by sulforhodamine B assay relative to control
Type: functional
Quantity name: Activity

INSERT INTO results (structure_smiles, assay_value) VALUES
  ('CCCCON1C(=O)[C@@H]2CCCN2C(=O)/C1=C\c1ccccc1', '87.5%'),
  ('CON1C(=O)[C@@H]2CCCN2C(=O)/C1=C\c1ccccc1', '82.6%'),
  ('COc1cc(/C=C2\C(=O)N3CCC[C@H]3C(=O)N2OC2CCCCC2)cc(OC)c1OC', '69.3%'),
  ('COc1cc(/C=C2\C(=O)N3CCC[C@H]3C(=O)N2OCc2ccc(Cl)cc2)cc(OC)c1OC', '94.4%');

###

System: A549
Experiment: Antiproliferative activity against human A549 cells after 24 hrs by sulforhodamine B assay relative to control
Format: functional, cell-based
Conditions: A549, 24 h
Quantity name: IC50

INSERT INTO results (structure_smiles, target_under_test, assay_value) VALUES
  ('COc1cc(/C=C2\C(=O)N3CCC[C@H]3C(=O)N2OCc2ccc(Cl)cc2)cc(OC)c1OC', 'A549', '11.4 µM');

###

Experiment: Growth inhibition of human Bre04 cells at 20 ug/ml after 24 hrs by sulforhodamine B assay relative to control
Type: functional
Details: Bre04, 24 h, read-out: GI
Quantity name: inhibition of growth at 20 µg/mL (%)

INSERT INTO results (structure_smiles, result_units, assay_value) VALUES
  ('O=C1[C@@H]2CCCN2C(=O)/C(=C\c2cccnc2)N1OC1CCCCC1', '%', 35.3),
  ('CON1C(=O)[C@@H]2CCCN2C(=O)/C1=C\c1ccccc1', '%', 24.5),
  ('O=C1[C@@H]2CCCN2C(=O)/C(=C\c2ccccc2)N1OCc1ccccc1', '%', 25),
  ('CCON1C(=O)[C@@H]2CCCN2C(=O)/C1=C\c1ccccc1', '%', 21.9),
  ('COc1cc(/C=C2\C(=O)N3CCC[C@H]3C(=O)N2OCc2ccc(Cl)cc2)cc(OC)c1OC', '%', 50.3);
